Target: Protein cereblon/Estrogen receptor (Homo sapiens, UniProt P03372+Q96SW2)
Assay: Protac activity at cereblon/ERalpha in human MCF7 cells assessed as induction of ERalpha protein degradation by Western blot analysis relative to control
Assay type: cell-based
Sequence (P03372 whole entry, looked up): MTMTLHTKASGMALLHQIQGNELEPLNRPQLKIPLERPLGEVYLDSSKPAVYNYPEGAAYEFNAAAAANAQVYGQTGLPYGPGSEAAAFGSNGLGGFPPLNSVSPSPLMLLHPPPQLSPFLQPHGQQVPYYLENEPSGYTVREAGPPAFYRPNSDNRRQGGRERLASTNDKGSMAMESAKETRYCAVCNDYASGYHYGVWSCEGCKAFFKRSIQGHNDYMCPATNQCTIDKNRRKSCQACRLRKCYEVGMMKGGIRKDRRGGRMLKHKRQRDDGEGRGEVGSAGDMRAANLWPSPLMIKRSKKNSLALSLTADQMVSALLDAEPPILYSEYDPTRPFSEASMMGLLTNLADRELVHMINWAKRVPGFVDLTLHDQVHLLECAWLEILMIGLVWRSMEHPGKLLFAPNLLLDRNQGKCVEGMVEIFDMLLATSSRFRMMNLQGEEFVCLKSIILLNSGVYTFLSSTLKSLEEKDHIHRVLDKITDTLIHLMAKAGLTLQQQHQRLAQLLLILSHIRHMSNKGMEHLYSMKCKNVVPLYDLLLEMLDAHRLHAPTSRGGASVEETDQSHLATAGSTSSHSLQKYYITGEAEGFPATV
Sequence (Q96SW2 whole entry, looked up): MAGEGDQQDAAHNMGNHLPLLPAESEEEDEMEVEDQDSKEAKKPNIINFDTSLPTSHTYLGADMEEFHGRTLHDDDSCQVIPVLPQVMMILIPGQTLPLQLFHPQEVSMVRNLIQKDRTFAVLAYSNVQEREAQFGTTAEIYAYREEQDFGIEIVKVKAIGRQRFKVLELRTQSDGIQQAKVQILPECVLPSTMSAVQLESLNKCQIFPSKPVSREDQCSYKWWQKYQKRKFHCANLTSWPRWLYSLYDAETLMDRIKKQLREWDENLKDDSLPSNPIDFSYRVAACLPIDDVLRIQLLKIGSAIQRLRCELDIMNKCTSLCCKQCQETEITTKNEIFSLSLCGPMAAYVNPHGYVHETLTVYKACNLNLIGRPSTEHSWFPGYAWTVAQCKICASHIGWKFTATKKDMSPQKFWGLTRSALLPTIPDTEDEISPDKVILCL
assay.metric: Emax

{"columns": ["compound", "assay.metric", "measurement"],
 "data": [
  ["COc1cc(N2CCN(CCC3CCN(c4ccc([C@@H]5c6ccc(O)cc6CC[C@@H]5c5ccccc5)cc4F)CC3)CC2)cc2c1C(=O)N(C1CCC(=O)NC1=O)C2 (stereo partly drawn)", "Emax", "> 75%"],
  ["COc1cc(N2CCN(CCC3(O)CC(Oc4ccc([C@@H]5c6ccc(O)cc6CC[C@@H]5c5ccccc5)cc4)C3)CC2)cc2c1C(=O)N(C1CCC(=O)NC1=O)C2 (stereo partly drawn)", "Emax", "> 75%"]
]}

Kindly consider the entry below.
Recorded result, COc1cc(N2CCN(C3CC4CC(Oc5ccc([C@@H]6c7ccc(O)cc7CC[C@@H]6c6ccc(F)cc6)cc5)CC4C3)CC2)cc2c1C(=O)N(C1CCC(=O)NC1=O)C2 (stereo partly drawn) , Emax: 50 to 75%

---

Target: Protein cereblon/Estrogen receptor (Homo sapiens, UniProt P03372+Q96SW2)
Assay: Protac activity at cereblon/ERalpha in human MCF7 cells assessed as induction of ERalpha protein degradation by Western blot analysis
Assay type: cell-based
Sequence (P03372 whole entry): as the sequence (P03372 whole entry, looked up) above
Sequence (Q96SW2 whole entry): as the sequence (Q96SW2 whole entry, looked up) above
Measured DC50, listed per entry.

Examples from the recorded data:
{"columns": ["compound", "DC50"],
 "data": [
  ["COc1cc(N2CCN(CCCCCOc3ccc([C@@H]4c5ccc(O)cc5CC[C@@H]4c4ccccc4)cc3)CC2)cc2c1C(=O)N([C@H]1CCC(=O)NC1=O)C2", "< 1 nM"],
  ["COc1cc(N2CCN(CCC3CCN(c4ccc([C@@H]5c6ccc(O)cc6CC[C@@H]5c5ccccc5)cc4F)CC3)CC2)cc2c1C(=O)N(C1CCC(=O)NC1=O)C2 (stereo partly drawn)", "1 to 10 nM"]
]}

GET /value?item= COc1cc(N2CCN(C3CC4CC(Oc5ccc([C@@H]6c7ccc(O)cc7CC[C@@H]6c6ccc(F)cc6)cc5)CC4C3)CC2)cc2c1C(=O)N(C1CCC(=O)NC1=O)C2 (stereo partly drawn) &field=DC50 returns < 1 nM

---

Target: Estrogen receptor (Homo sapiens)
Sequence (P03372 whole entry): as the sequence (P03372 whole entry, looked up) above
Experiment: Inhibition of ERalpha in human T47D cells by ERE-driven luciferase reporter gene assay based target engagement assay
pIC50: −log10 of the molar value.
assay.metric: pIC50

{"columns": ["compound", "system.under.test", "assay.metric", "measurement"],
 "data": [
  ["COc1cc(N2CCN(CCCCCOc3ccc([C@@H]4c5ccc(O)cc5CC[C@@H]4c4ccccc4)cc3)CC2)cc2c1C(=O)N([C@H]1CCC(=O)NC1=O)C2", "Estrogen receptor (Homo sapiens)", "pIC50", 9.31],
  ["COc1cc(N2CCN(C3CC4CC(Oc5ccc([C@@H]6c7ccc(O)cc7CC[C@@H]6c6ccc(F)cc6)cc5)CC4C3)CC2)cc2c1C(=O)N(C1CCC(=O)NC1=O)C2 (stereo partly drawn)", "Estrogen receptor (Homo sapiens)", "pIC50", 9.09],
  ["COc1cc(N2CCN(CCC3(O)CC(Oc4ccc([C@@H]5c6ccc(O)cc6CC[C@@H]5c5ccccc5)cc4)C3)CC2)cc2c1C(=O)N(C1CCC(=O)NC1=O)C2 (stereo partly drawn)", "Estrogen receptor (Homo sapiens)", "pIC50", 9.52]
]}

[I] COc1cc(N2CCN(CCCCCOc3ccc([C@@H]4c5ccc(O)cc5CC[C@@H]4c4ccccc4)cc3)CC2)cc2c1C(=O)N([C@@H]1CCC(=O)NC1=O)C2
[II] COc1cc(N2CCN(CC(=O)C3CC(Oc4ccc([C@@H]5c6ccc(O)cc6CC[C@@H]5c5ccccc5)cc4)C3)CC2)cc2c1C(=O)N(C1CCC(=O)NC1=O)C2 (stereo partly drawn)
Pick one: I or II . Which one has the lower reported pIC50? Which one? Tell me its label.
II

[P] O=C1CCC(N2Cc3cc(N4CCN(CCC5(O)CC(Oc6ccc([C@@H]7c8ccc(O)cc8CC[C@@H]7c7ccccc7)cc6)C5)CC4)cc(OC(F)F)c3C2=O)C(=O)N1 (stereo partly drawn)
[Q] COc1cc(N2CCN(CCCCCOc3ccc([C@@H]4c5ccc(O)cc5CC[C@@H]4c4ccccc4)cc3)CC2)cc2c1C(=O)N(C1CCC(=O)NC1=O)C2 (stereo partly drawn)
// returns P or Q , whichever has the lower pIC50 Returns: label corresponding to the selected item.
Q
